These entries and their values trace back to PubChem BioAssay.

assay: inhibition of 3D7 malaria parasite growth – strain 3D7 (AID 2306);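 also: 0% = DMSO wells and 100% = chloroquine plus artemisinin control wells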; settings: P. falciparum 3D7 erythrocytic growth, LDH absorbance, 72 h; at 2 µM; stronger effect = higher value
Activity calls are given as the source filed them. No rule for the calls is given here.
The entries below come with measured growth inhibition values attached.

Please review the following examples before continuing.
CCC(=O)N1CCc2cc(Br)cc(S(=O)(=O)N3CC(C)CC(C)C3)c21 (stereo unspecified)	85% (active)
O=C(Nc1ccc(Cl)cc1)N1CCN(C2CCCCC2)CC1	93% (active)
Cc1[nH]c(C)c(-c2ccc(OCc3ccc(F)cc3)cc2)c(=O)c1Br	98% (active)
CCCC(C)Nc1nc(C)cc(NCCC(=O)Nc2ccccc2)n1 (stereo unspecified)	96% (active)
CN(C)c1ccc(-c2cscc2C(=O)NC2CCCN(Cc3cccnc3)C2)cc1 (stereo unspecified)	89% (active)
CC(C)N1CCN(C(=O)c2ccc(CNCCCN3CCN(c4cccc(Cl)c4Cl)CC3)s2)CC1	102% (active)
COc1cc(NC2=C(c3ccccc3)C(=O)c3ccccc32)ccn1	96% (active)
Cc1cccc(C)c1OC(=O)[C@@H](C)[C@@H](O)C1(Sc2ccccc2)CCN(C)CC1	98% (active)
CCCCCCCCN1CCCN(C(=O)c2cccc(NC(=O)Nc3ccc4ccccc4c3)c2)CC1	97% (active)
Cc1ccc(NC(=O)N2CCC(n3c(-c4ccccc4)nc4cccnc43)CC2)cc1F	96% (active)

stdin: Consider the molecule CC(=O)N1Cc2ccccc2C1=O and give its measured growth inhibition.
stdout: 97% (active)
